molecular target: T1, human CD3e/g (human, UniProt P07766 23-126; P09693 23-116); test: SPR (Carterra LSA), mAb on chip
T1 construct: Bought soluble protein; also called hCD3e/g; human CD3e/g (Acro CDD-C52W4)
T1 sequence (P07766 23-126, chain 1 of 2): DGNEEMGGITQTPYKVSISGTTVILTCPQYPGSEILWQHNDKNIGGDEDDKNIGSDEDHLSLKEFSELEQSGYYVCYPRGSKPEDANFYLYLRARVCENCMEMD
T1 sequence (P09693 23-116, chain 2 of 2): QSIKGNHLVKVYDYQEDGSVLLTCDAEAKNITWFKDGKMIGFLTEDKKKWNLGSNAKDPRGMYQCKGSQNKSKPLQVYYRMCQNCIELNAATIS
Each entry below lists one item and its recorded log10 Kd value.
A difference of one corresponds to tenfold Kd; all values are log10 with Kd in nM.

# annotated cases, reported log10 Kd shown
| binder | log10 Kd |
| --- | --- |
| mAb 193 (antibody, V domains shown, VH and VL only) VH: QVQLVESGGGVVQPGRSLRLSCAASGFTFSGYGMHWVRQAPGKGLEWVAIIYYNGNNRKYADSVKGRFTISRDNSKNTVSLQMNSLRVEDTAIYYCTRGDGYNWFVTWGQGTLVTVSS VL: EIVMTQSPATLSVSPGERATLSCRASQSVSSNLAWYHQKPGQAPRLLIYGASTRATGIPVRFSGSGSGTEFTLTISSLQSDDFAVYYCQQYNNWPLTFGGGTKVEIK | 1.46 |
| mAb 192 (antibody, V domains shown, VH and VL only) VH: QVQLVESGGGVVQPGRSLRLSCAASGFTFSGYGMHWVRQAPGKGLEWVAIIYYNGKKEYYADSVKGRFTISRDNSKNTLYLQMNSLRAEDTAVYYCTRGEGYNWFDPWGQGILVTVSS VL: EIVMTQSPATLSVSPGERATLSCRASQSVSSNLAWYQQKPGQAPRLLIYGASTRATGIPARFSGSGSGTEFTLTISSLQSEDFAVYYCKQYKNWPLTFGGGTKVEIK | 0.97 |

Q: Provide only the value of recorded log10 Kd for mAb 54 (antibody, V domains shown, VH and VL only) VH: EVQLEESGGGLVQPGGSLRLSCAASGFTFSRYSMNWVRQAPGKGLEWFSYISSSSRTIYYADSVKGRFTMSRDNAKNSLYLQMNSLRDEDTAVYFCARGDYYDSEGMDVWGKGTTVTVSS VL: DIQMTQSPSTLSASVGDRVTITCRASQTITTWLAWYQQKPGKAPKLLIYKASTLESGVPSRFSGSGSGTEFTLTISSLQPDDFATYHCQQYKTFSYTFGQGTKLDIK
Ans: 1.92

Q: Quote log10 Kd reported for mAb 68 (antibody, V domains shown, VH and VL only) VH: EVQLVDSGGGLVQPGGSLRLSCSGSGFTFSSYWMSWVRQAPGKGLEWVANIKQDGSQKYYVDSVKGRFTISRDNVKNSLYLQMNSLRVEDTAVYYCARDESSSWYWYFDLWGRGTLVTVSS VL: DIQMTQSPSTLSASVGDRVTLTCRASQNIVKWLAWYQQKPGKAPKLLIYKASSLESGVPSWFSGSGSGTEFTLTINSLQPDDFATYYCQQYYTYSRTFGQGTKVEIK please.
Ans: 2.00

Q: Look up log10 Kd of mAb 157 (antibody, V domains shown, VH and VL only) VH: EVQLVESGGGLVKTGGSLRLSCVASGFSFKKAWMNWVRQAPGKGLEWVGRIKRTADGGATDYAAPVKGRFTLSRDDSKNTLYLQMNSLKTEDTAVYYCTTLDSSSWYVGYYYMDVWGKGTTVTVSS VL: DIHMTQAPSSVSASVGDRVTFTCRASQDINNWLAWYQQKPGKAPKLLIYTASSLQSGVPSRFSGSGSGTDFTLTISSLQPEDFATYYCQQAHSLPITFGQGTRLGIK and report it.
Ans: 1.09
